- assay-system: Neuronal acetylcholine receptor; alpha4/beta2 (Homo sapiens, UniProt P17787+P43681)
- Sequence (P17787 whole entry): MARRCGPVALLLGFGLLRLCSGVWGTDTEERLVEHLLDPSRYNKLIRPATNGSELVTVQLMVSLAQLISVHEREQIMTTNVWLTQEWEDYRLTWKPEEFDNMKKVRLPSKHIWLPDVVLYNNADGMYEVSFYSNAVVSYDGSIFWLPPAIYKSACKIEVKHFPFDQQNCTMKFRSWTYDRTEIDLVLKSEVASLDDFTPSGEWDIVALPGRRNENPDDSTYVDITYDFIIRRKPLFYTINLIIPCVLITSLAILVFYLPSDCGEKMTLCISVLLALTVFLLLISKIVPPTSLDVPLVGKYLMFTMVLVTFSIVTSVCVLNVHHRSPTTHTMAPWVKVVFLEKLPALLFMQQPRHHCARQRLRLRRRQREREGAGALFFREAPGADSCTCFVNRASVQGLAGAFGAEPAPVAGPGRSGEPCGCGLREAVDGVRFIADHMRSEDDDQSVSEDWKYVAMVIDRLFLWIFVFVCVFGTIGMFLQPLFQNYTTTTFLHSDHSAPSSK
- Sequence (P43681 whole entry): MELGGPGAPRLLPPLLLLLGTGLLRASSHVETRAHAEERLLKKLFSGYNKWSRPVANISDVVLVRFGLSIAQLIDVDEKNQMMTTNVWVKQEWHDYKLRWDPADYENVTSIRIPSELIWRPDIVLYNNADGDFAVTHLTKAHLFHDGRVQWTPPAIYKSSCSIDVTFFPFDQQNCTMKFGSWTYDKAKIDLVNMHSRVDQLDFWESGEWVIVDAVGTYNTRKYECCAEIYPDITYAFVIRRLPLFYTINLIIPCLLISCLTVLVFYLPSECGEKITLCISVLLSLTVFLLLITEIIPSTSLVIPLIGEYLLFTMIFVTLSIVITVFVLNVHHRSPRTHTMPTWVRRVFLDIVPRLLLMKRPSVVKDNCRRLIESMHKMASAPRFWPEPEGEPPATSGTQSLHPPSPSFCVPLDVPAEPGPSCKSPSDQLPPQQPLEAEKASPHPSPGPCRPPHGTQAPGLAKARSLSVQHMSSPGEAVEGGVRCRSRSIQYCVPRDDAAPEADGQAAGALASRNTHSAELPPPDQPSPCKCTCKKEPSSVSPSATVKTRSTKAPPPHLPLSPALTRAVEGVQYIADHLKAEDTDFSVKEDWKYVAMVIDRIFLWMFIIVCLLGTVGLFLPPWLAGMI
- assay-explanation: Agonist activity at human AChR alpha4beta2 transfected in human HEK293 cells assessed as increase in calcium influx incubated for 1 hr by fluo-4 dye based assay
- Type: cell-based
Activity calls are given as the source filed them. The calls are words filed in the database; no cut-off is given here.
The reply should be one of these categories: active, inactive

Would you please look over these solved cases?
Clc1ccc(C2C[C@@H]3CC[C@H]2N3)cn1 (mixture of isomers)    active
CC1(C)N[C@@H]2Cc3c([nH]c4ccccc34)[C@]3(C)CC[C@H]1C[C@H]23    inactive
CC1=CC[C@@H]2C[C@H]1[C@@H](c1ccnc3ccccc13)NC2(C)C    inactive

Moving on to the next molecule.
*Q* What did this assay record as the result for `CC1(C)[C@@H]2C[C@@H]3[C@H]4C[C@@]5(Nc6ccccc6[C@@H]5N41)[C@]3(C)CC2=O` ?
*A* inactive

* * *

- assay-system: Neuronal acetylcholine receptor subunit alpha-7 (Homo sapiens, UniProt P36544)
- Sequence (P36544 whole entry): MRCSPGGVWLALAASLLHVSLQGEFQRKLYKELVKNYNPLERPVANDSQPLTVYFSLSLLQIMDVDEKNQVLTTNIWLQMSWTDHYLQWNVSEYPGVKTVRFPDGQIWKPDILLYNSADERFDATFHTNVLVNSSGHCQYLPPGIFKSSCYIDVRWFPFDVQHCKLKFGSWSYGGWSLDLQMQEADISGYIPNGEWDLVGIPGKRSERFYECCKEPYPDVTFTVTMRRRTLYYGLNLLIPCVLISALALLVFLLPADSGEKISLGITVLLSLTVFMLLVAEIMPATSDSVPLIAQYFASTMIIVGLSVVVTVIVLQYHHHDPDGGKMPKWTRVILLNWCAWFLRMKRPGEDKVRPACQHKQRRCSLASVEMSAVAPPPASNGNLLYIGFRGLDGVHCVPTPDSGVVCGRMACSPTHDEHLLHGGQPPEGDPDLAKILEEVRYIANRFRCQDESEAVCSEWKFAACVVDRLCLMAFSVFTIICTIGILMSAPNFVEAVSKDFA
- assay-explanation: Agonist activity at human AChR alpha7 transfected in rat GH3 cells assessed as increase in calcium influx incubated for 1 hr by fluo-4 dye based assay
- Type: cell-based
Active and inactive are the calls of the source. The rule behind the calls is not given here.
assay-endpoint: Activity

CC1=CC[C@@H]2C[C@H]1[C@@H](c1ccnc3ccccc13)NC2(C)C    inactive
CC1(C)N[C@@H]2Cc3c([nH]c4ccccc34)[C@]3(C)CC[C@H]1C[C@H]23    inactive
CC1(C)[C@@H]2C[C@@H]3[C@H]4C[C@@]5(Nc6ccccc6[C@@H]5N41)[C@]3(C)CC2=O    inactive

* * *

- assay-system: Neuronal acetylcholine receptor; alpha4/beta2 (Homo sapiens, UniProt P17787+P43681)
- assay-explanation: Antagonist activity at human AChR alpha4beta2 transfected in human HEK293 cells assessed as decrease in epibatidine-induced calcium influx incubated for 1 hr by fluo-4 dye based assay
assay-endpoint: IC50 (µM)
Express the result in µM but write the number alone.

See these solved cases before continuing.
CC1=CC[C@@H]2C[C@H]1[C@@H](c1ccnc3ccccc13)NC2(C)C    6.7
CC1(C)[C@@H]2C[C@@H]3[C@H]4C[C@@]5(Nc6ccccc6[C@@H]5N41)[C@]3(C)CC2=O    145

Next molecule, please.
get_value(item= `CC1(C)N[C@@H]2Cc3c([nH]c4ccccc34)[C@]3(C)CC[C@H]1C[C@H]23` , readout=IC50) returns 3.4
